TEST_SYSTEM: Prostaglandin E2 receptor EP1 subtype (Mus musculus)
ASSAY_NOTES: Displacement of [3H]PGE2 from mouse prostaglandin EP1 receptor expressed in CHO cells after 60 mins by liquid scintillation counting
Type: cell-based
pKi: −log10 of the molar value.
ASSAY_READOUT: pKi

What value of pKi on Prostaglandin E2 receptor EP1 subtype (Mus musculus) does CN1C[C@@H](COc2ccc(C(=O)Nc3cc(CC(=O)O)ccc3F)c(Cl)c2)Oc2ccccc21 have?
< 5.00

---

ASSAY_NOTES: Half life in rat at 10 mg/kg, po
Assay type: ADME, organism-based
Parameters: dose 10 mg/kg, route oral
EXPERIMENTAL_CONTEXT: in vivo
Would you kindly list half-life for each of these compounds?
Answer shape: numeric part, then the unit.

Illustrative cases are given below, each with its answer.
{"TEST_SMILES": "CN1C[C@@H](COc2ccc(C(=O)Nc3cccc(CC(=O)O)c3)cc2)Oc2ccccc21", "half-life": "1.8 h"}
{"TEST_SMILES": "Cc1cc2c(CC(=O)O)cccc2n1C(=O)c1ccc(OC[C@@H]2CN(C)c3ccccc3O2)cc1", "half-life": "5.4 h"}

Now for another entry.
Fill in the blank: the reported half-life of Cc1ccc(CC(=O)O)cc1NC(=O)c1ccc(OC[C@@H]2CN(C)c3ccccc3O2)cc1C is ____.
5.2 h

---

TEST_SYSTEM: Prostaglandin E2 receptor EP1 subtype (Mus musculus)
Sequence (P35375 whole entry): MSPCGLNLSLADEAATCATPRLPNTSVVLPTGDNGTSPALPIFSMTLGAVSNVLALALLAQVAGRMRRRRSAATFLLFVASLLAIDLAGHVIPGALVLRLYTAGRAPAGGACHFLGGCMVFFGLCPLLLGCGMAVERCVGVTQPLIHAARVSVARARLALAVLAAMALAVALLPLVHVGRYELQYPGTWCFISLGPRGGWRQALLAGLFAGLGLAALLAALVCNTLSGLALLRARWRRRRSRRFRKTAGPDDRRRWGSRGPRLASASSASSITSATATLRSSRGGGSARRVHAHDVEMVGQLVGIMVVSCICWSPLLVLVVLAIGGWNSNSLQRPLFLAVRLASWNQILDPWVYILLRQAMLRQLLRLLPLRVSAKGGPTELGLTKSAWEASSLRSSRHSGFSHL
ASSAY_NOTES: Displacement of [3H]PGE2 from mouse prostaglandin EP1 receptor expressed in CHO cells after 20 mins by liquid scintillation counting
Would you kindly list Ki for each of these compounds?
Numbers only, in µM.

Illustrative cases are given below, each with its answer.
{"TEST_SMILES": "CN1C[C@@H](COc2ccc(C(=O)Nc3cc(CC(=O)O)ccc3Cl)c(Cl)c2)Oc2ccccc21", "TEST_SYSTEM": "Prostaglandin E2 receptor EP1 subtype (Mus musculus)", "VALUE": 6.6}
{"TEST_SMILES": "CN1C[C@@H](COc2ccc(C(=O)Nc3cccc(CC(=O)O)c3)cc2)Oc2ccccc21", "TEST_SYSTEM": "Prostaglandin E2 receptor EP1 subtype (Mus musculus)", "VALUE": 2.1}
{"TEST_SMILES": "CN1C[C@@H](COc2ccc(S(=O)(=O)Nc3cccc(CC(=O)O)c3)cc2)Oc2ccccc21", "TEST_SYSTEM": "Prostaglandin E2 receptor EP1 subtype (Mus musculus)", "VALUE": 2.7}

Fill in the blank: the reported Ki of CCN(C(=O)c1ccc(OC[C@@H]2CN(C)c3ccccc3O2)cc1)c1cccc(CC(=O)O)c1 is ____.
1.3

---

ASSAY_NOTES: AUC (infinity) in rat at 10 mg/kg, po
Assay type: ADME, organism-based
Set-up: time infinity, dose 10 mg/kg, route oral
EXPERIMENTAL_CONTEXT: plasma
ASSAY_READOUT: AUC(0-inf) (ng·h/mL)
Give bare numbers, in ng·h/mL.

{"TEST_SMILES": "Cc1cc2c(CC(=O)O)cccc2n1C(=O)c1ccc(OC[C@@H]2CN(C)c3ccccc3O2)cc1", "ASSAY_READOUT": "AUC(0-inf)", "VALUE": 24300}

Now for another entry.
Fill in the blank: the reported AUC(0-inf) of CN1C[C@@H](COc2ccc(C(=O)Nc3cccc(CC(=O)O)c3)cc2)Oc2ccccc21 is ____.
8000

---

ASSAY_NOTES: AUClast in rat at 1 mg/kg, iv
Type: ADME, organism-based
Design: time 0 - last, dose 1 mg/kg, route intravenous
EXPERIMENTAL_CONTEXT: plasma
ASSAY_READOUT: AUC(0-t) (ng·h/mL)
One number for each entry, in ng·h/mL.

Fill in the blank: the reported AUC(0-t) of Cc1ccc(CC(=O)O)cc1NC(=O)c1ccc(OC[C@@H]2CN(C)c3ccccc3O2)cc1C is ____.
4600

---

TEST_SYSTEM: Prostaglandin E2 receptor EP2 subtype (Mus musculus, UniProt Q62053)
Sequence (Q62053 whole entry): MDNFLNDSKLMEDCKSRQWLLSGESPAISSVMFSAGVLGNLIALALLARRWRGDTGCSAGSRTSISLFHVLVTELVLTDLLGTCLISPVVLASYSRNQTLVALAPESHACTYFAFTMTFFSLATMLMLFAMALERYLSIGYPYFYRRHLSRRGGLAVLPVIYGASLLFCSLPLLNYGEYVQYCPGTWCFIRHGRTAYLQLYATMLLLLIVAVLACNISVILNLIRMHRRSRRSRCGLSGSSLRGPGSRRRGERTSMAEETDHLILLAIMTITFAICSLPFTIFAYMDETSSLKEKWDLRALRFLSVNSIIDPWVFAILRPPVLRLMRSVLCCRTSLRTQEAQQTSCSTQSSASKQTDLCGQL
ASSAY_NOTES: Displacement of [3H]PGE2 from mouse prostaglandin EP2 receptor expressed in CHO cells after 60 mins by liquid scintillation counting
Format: cell-based
pKi: −log10 of the molar value.
Assign true (1) whenever pKi does not fall below 6; assign false (0) whenever it does.

Evaluate CN1C[C@@H](COc2ccc(S(=O)(=O)Nc3cccc(CC(=O)O)c3)cc2)Oc2ccccc21 : pKi at minimum 6?
false (0)

One more compound: Cc1cc(CC(=O)O)cc(NC(=O)c2ccc(OC[C@@H]3CN(C)c4ccccc4O3)cc2C)c1
true (1)

One more compound: CN1C[C@@H](COc2ccc(C(=O)N(C)c3cccc(CC(=O)O)c3)cc2)Oc2ccccc21
false (0)

One more compound: CN1C[C@@H](COc2ccc(C(=O)Nc3cc(CC(=O)O)ccc3Cl)c(Cl)c2)Oc2ccccc21
true (1)

One more compound: CCN(C(=O)c1ccc(OC[C@@H]2CN(C)c3ccccc3O2)cc1)c1cccc(CC(=O)O)c1
false (0)

One more compound: CN1C[C@@H](COc2ccc(C(=O)Nc3cccc(CC(=O)O)c3)cc2)Oc2ccccc21
true (1)

One more compound: CN1C[C@@H](COc2ccc(C(=O)Nc3cc(CC(=O)O)ccc3F)c(Cl)c2)Oc2ccccc21
true (1)

---

Would you kindly list IC50 for each of these compounds?
TEST_SYSTEM: Prostaglandin D2 receptor (Mus musculus)
Sequence (P70263 whole entry): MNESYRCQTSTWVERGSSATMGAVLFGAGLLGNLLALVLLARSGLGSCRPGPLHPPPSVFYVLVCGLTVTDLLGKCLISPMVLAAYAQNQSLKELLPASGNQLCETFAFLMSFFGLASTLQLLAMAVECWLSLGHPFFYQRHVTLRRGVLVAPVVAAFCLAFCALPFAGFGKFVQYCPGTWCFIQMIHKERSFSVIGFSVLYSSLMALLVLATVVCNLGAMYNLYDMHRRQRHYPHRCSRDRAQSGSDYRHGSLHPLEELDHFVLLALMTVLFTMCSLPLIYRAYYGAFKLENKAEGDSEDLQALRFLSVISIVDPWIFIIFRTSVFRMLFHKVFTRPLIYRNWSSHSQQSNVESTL
ASSAY_NOTES: Antagonist activity at mouse prostanoid DP receptor expressed in CHO cells assessed as inhibition of PGD2-induced intracellular cAMP production
Answer shape: numeric part, then the unit.

Illustrative cases are given below, each with its answer.
{"TEST_SMILES": "Cc1cc(OC[C@@H]2CN(C)c3ccccc3O2)ccc1C(=O)Nc1cccc(CC(=O)O)c1", "IC50": "3.3 nM"}
{"TEST_SMILES": "Cc1cc(OC[C@@H]2CN(C)c3ccccc3O2)ccc1C(=O)Nc1cc(CC(=O)O)ccc1F", "IC50": "1.8 nM"}
{"TEST_SMILES": "COc1ccc(NC(=O)c2ccc(OC[C@@H]3CN(C)c4ccccc4O3)cc2C)cc1CC(=O)O", "IC50": "20 nM"}
{"TEST_SMILES": "Cc1ccc(CC(=O)O)cc1NC(=O)c1ccc(OC[C@@H]2CN(C)c3ccccc3O2)cc1Cl", "IC50": "6 nM"}
{"TEST_SMILES": "CN1C[C@@H](COc2ccc(C(=O)Nc3cccc(CC(=O)O)c3)c(Cl)c2)Oc2ccccc21", "IC50": "20 nM"}

For every item below, please supply its IC50.
1. CN1C[C@@H](COc2ccc(C(=O)Nc3cccc(CC(=O)O)c3)cc2)Oc2ccccc21
2. CN1C[C@@H](COc2ccc(C(=O)Nc3cc(CC(=O)O)ccc3Cl)c(Cl)c2)Oc2ccccc21
3. Cc1ccc(CC(=O)O)cc1NC(=O)c1ccc(OC[C@@H]2CN(C)c3ccccc3O2)cc1C
4. Cc1cc(CC(=O)O)cc(NC(=O)c2ccc(OC[C@@H]3CN(C)c4ccccc4O3)cc2Cl)c1

220 nM
4.3 nM
4.6 nM
5.4 nM

---

TEST_SYSTEM: UniProt P43119
Sequence (P43119 whole entry): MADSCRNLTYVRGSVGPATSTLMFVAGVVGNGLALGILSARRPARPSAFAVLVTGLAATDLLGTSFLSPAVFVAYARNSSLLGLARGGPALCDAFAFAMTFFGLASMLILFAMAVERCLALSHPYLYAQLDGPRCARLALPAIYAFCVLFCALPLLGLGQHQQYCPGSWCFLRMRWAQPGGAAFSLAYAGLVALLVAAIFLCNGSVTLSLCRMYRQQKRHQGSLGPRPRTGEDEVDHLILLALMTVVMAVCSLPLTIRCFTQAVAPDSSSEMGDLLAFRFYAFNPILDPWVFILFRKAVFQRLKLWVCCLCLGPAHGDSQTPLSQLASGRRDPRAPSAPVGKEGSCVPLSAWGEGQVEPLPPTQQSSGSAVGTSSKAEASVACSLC
Would you kindly list pKi for each of these compounds?
One number for each entry, as −log10 of the molar value.

Illustrative cases are given below, each with its answer.
{"TEST_SMILES": "Cc1cc(CC(=O)O)cc(NC(=O)c2ccc(OC[C@@H]3CN(C)c4ccccc4O3)cc2C)c1", "TEST_SYSTEM": "UniProt P43119", "pKi": 5.46}
{"TEST_SMILES": "Cc1cc(OC[C@@H]2CN(C)c3ccccc3O2)ccc1C(=O)Nc1cccc(CC(=O)O)c1", "TEST_SYSTEM": "UniProt P43119", "pKi": 5.44}
{"TEST_SMILES": "CN1C[C@@H](COc2ccc(C(=O)Nc3cc(CC(=O)O)ccc3Cl)c(Cl)c2)Oc2ccccc21", "TEST_SYSTEM": "UniProt P43119", "pKi": 5.80}
{"TEST_SMILES": "Cc1ccc(CC(=O)O)cc1NC(=O)c1ccc(OC[C@@H]2CN(C)c3ccccc3O2)cc1C", "TEST_SYSTEM": "UniProt P43119", "pKi": 5.59}

Fill in the blank: the reported pKi of CN1C[C@@H](COc2ccc(S(=O)(=O)Nc3cccc(CC(=O)O)c3)cc2)Oc2ccccc21 is ____.
5.34

Entry source: ChEMBL document CHEMBL1817571
